Listed next: entries and their corresponding solubility change mitosis (log2).
Tested on: HeLa Kyoto
Test: solubility change mitosis vs G1/S (difference of NP-40 vs SDS log2 ratios) (log2 ratio difference); higher = more soluble in mitosis
reportedEndpoint: solubility change mitosis (log2)

[
  {
    "chainSequence": "MEIPPTNYPASRAALVAQNYINYQQGTPHRVFEVQKVKQASMEDIPGRGHKYHLKFAVEEIIQKQVKVNCTAEVLYPSTGQETAPEVNFTFEGETGKNPDEEDNTFYQRLKSMKEPLEAQNIPDNFGNVSPEMTLVLHLAWVACGYIIWQNSTEDTWYKMVKIQTVKQVQRNDDFIELDYTILLHNIASQEIIPWQMQVLWHPQYGTKVKHNSRLPKEVQLE [LXN]",
    "observedResult": -0.098
  },
  {
    "chainSequence": "MDSPWDELALAFSRTSMFPFFDIAHYLVSVMAVKRQPGAAALAWKNPISSWFTAMLHCFGGGILSCLLLAEPPLKFLANHTNILLASSIWYITFFCPHDLVSQGYSYLPVQLLASGMKEVTRTWKIVGGVTHANSYYKNGWIVMIAIGWARGAGGTIITNFERLVKGDWKPEGDEWLKMSYPAKVTLLGSVIFTFQHTQHLAISKHNLMFLYTIFIVATKITMMTTQTSTMTFAPFEDTLSWMLFGWQQPFSSCEKKSEAKSPSNGVGSLASKPVDVASDNVKKKHTKKNE [TMEM38B]",
    "observedResult": -0.17
  },
  {
    "chainSequence": "MRSRVLWGAARWLWPRRAVGPARRPLSSGSPPLEELFTRGGPLRTFLERQAGSEAHLKVRRPELLAVIKLLNEKERELRETEHLLHDENEDLRKLAENEITLCQKEITQLKHQIILLLVPSEETDENDLILEVTAGVGGQEAMLFTSEIFDMYQQYAAFKRWHFETLEYFPSELGGLRHASASIGGSEAYRHMKFEGGVHRVQRVPKTEKQGRVHTSTMTVAILPQPTEINLVINPKDLRIDTKRASGAGGQHVNTTDSAVRIVHLPTGVVSECQQERSQLKNKELAMTKLRAKLYSMHLEEEINKRQNARKIQIGSKGRSEKIRTYNFPQNRVTDHRINKTLHDLETFMQGDYLLDELVQSLKEYADYESLVEIISQKV [MTRF1L]",
    "observedResult": 0.288
  },
  {
    "chainSequence": "MDEDGLPLMGSGIDLTKVPAIQQKRTVAFLNQFVVHTVQFLNRFSTVCEEKLADLSLRIQQIETTLNILDAKLSSIPGLDDVTVEVSPLNVTSVTNGAHPEATSEQPQQNSTQDSGLQESEVSAENILTVAKDPRYARYLKMVQVGVPVMAIRNKMISEGLDPDLLERPDAPVPDGESEKTVEESSDSESSFSD [CCDC53]",
    "observedResult": -0.0689
  },
  {
    "chainSequence": "MSSSVEQKKGPTRQRKCGFCKSNRDKECGQLLISENQKVAAHHKCMLFSSALVSSHSDNESLGGFSIEDVQKEIKRGTKLMCSLCHCPGATIGCDVKTCHRTYHYHCALHDKAQIREKPSQGIYMVYCRKHKKTAHNSEADLEESFNEHELEPSSPKSKKKSRKGRPRKTNFKGLSEDTRSTSSHGTDEMESSSYRDRSPHRSSPSDTRPKCGFCHVGEEENEARGKLHIFNAKKAAAHYKCMLFSSGTVQLTTTSRAEFGDFDIKTVLQEIKRGKRMKCTLCSQPGATIGCEIKACVKTYHYHCGVQDKAKYIENMSRGIYKLYCKNHSGNDERDEEDEERESKSRGKVEIDQQQLTQQQLNGN [PHF6]",
    "observedResult": 0.284
  }
]

---

Listed next: entries and their corresponding solubility in G1/S (log2).
Test system: HeLa Kyoto
Experiment: solubility in G1/S (NP-40 vs SDS abundance) (log2 ratio); higher = more soluble
Conditions: cell cycle stage: G1/S
reportedEndpoint: solubility in G1/S (log2)

[
  {
    "chainSequence": "MASKLLRAVILGPPGSGKGTVCQRIAQNFGLQHLSSGHFLRENIKASTEVGEMAKQYIEKSLLVPDHVITRLMMSELENRRGQHWLLDGFPRTLGQAEALDKICEVDLVISLNIPFETLKDRLSRRWIHPPSGRVYNLDFNPPHVHGIDDVTGEPLVQQEDDKPEAVAARLRQYKDVAKPVIELYKSRGVLHQFSGTETNKIWPYVYTLFSNKITPIQSKEAY [AK4]",
    "assayTarget": "HeLa Kyoto",
    "observedResult": 0.384
  },
  {
    "chainSequence": "MSGEENPASKPTPVQDVQGDGRWMSLHHRFVADSKDKEPEVVFIGDSLVQLMHQCEIWRELFSPLHALNFGIGGDGTQHVLWRLENGELEHIRPKIVVVWVGTNNHGHTAEQVTGGIKAIVQLVNERQPQARVVVLGLLPRGQHPNPLREKNRQVNELVRAALAGHPRAHFLDADPGFVHSDGTISHHDMYDYLHLSRLGYTPVCRALHSLLLRLLAQDQGQGAPLLEPAP [PAFAH1B3]",
    "assayTarget": "HeLa Kyoto",
    "observedResult": 0.751
  },
  {
    "chainSequence": "MASPSKAVIVPGNGGGDVTTHGWYGWVKKELEKIPGFQCLAKNMPDPITARESIWLPFMETELHCDEKTIIIGHSSGAIAAMRYAETHRVYAIVLVSAYTSDLGDENERASGYFTRPWQWEKIKANCPYIVQFGSTDDPFLPWKEQQEVADRLETKLHKFTDCGHFQNTEFHELITVVKSLLKVPA [RBBP9]",
    "assayTarget": "HeLa Kyoto",
    "observedResult": 0.42
  }
]

---

Tested on: HeLa Kyoto
Assay: solubility change mitosis vs G1/S (difference of NP-40 vs SDS log2 ratios) (log2 ratio difference); higher = more soluble in mitosis
// Condition not met strictly below -0.06 in solubility change mitosis (log2); Condition met otherwise

[
  {
    "chainSequence": "MAEAGAGLSETVTETTVTVTTEPENRSLTIKLRKRKPEKKVEWTSDTVDNEHMGRRSSKCCCIYEKPRAFGESSTESDEEEEEGCGHTHCVRGHRKGRRRATLGPTPTTPPQPPDPSQPPPGPMQH [PPP1R11]",
    "categoryLabel": "Condition met"
  },
  {
    "chainSequence": "MLRSCAARLRTLGALCLPPVGRRLPGSEPRPELRSFSSEEVILKDCSVPNPSWNKDLRLLFDQFMKKCEDGSWKRLPSYKRTPTEWIQDFKTHFLDPKLMKEEQMSQAQLFTRSFDDGLGFEYVMFYNDIEKRMVCLFQGGPYLEGPPGFIHGGAIATMIDATVGMCAMMAGGIVMTANLNINYKRPIPLCSVVMINSQLDKVEGRKFFVSCNVQSVDEKTLYSEATSLFIKLNPAKSLT [THEM4]",
    "categoryLabel": "Condition not met"
  },
  {
    "chainSequence": "MASGVTVNDEVIKVFNDMKVRKSSTQEEIKKRKKAVLFCLSDDKRQIIVEEAKQILVGDIGDTVEDPYTSFVKLLPLNDCRYALYDATYETKESKKEDLVFIFWAPESAPLKSKMIYASSKDAIKKKFTGIKHEWQVNGLDDIKDRSTLGEKLGGNVVVSLEGKPL [CFL2]",
    "categoryLabel": "Condition met"
  },
  {
    "chainSequence": "MRRLNRKKTLSLVKELDAFPKVPESYVETSASGGTVSLIAFTTMALLTIMEFSVYQDTWMKYEYEVDKDFSSKLRINIDITVAMKCQYVGADVLDLAETMVASADGLVYEPTVFDLSPQQKEWQRMLQLIQSRLQEEHSLQDVIFKSAFKSTSTALPPREDDSSQSPNACRIHGHLYVNKVAGNFHITVGKAIPHPRGHAHLAALVNHESYNFSHRIDHLSFGELVPAIINPLDGTEKIAIDHNQMFQYFITVVPTKLHTYKISADTHQFSVTERERIINHAAGSHGVSGIFMKYDLSSLMVTVTEEHMPFWQFFVRLCGIVGGIFSTTGMLHGIGKFIVEIICCRFRLGSYKPVNSVPFEDGHTDNHLPLLENNTH [ERGIC2]",
    "categoryLabel": "Condition not met"
  },
  {
    "chainSequence": "MAARWRFWCVSVTMVVALLIVCDVPSASAQRKKEMVLSEKVSQLMEWTNKRPVIRMNGDKFRRLVKAPPRNYSVIVMFTALQLHRQCVVCKQADEEFQILANSWRYSSAFTNRIFFAMVDFDEGSDVFQMLNMNSAPTFINFPAKGKPKRGDTYELQVRGFSAEQIARWIADRTDVNIRVIRPPNYAGPLMLGLLLAVIGGLVYLRRSNMEFLFNKTGWAFAALCFVLAMTSGQMWNHIRGPPYAHKNPHTGHVNYIHGSSQAQFVAETHIVLLFNGGVTLGMVLLCEAATSDMDIGKRKIMCVAGIGLVVLFFSWMLSIFRSKYHGYPYSFLMS [MAGT1]",
    "categoryLabel": "Condition met"
  },
  {
    "chainSequence": "MAFVTRQFMRSVSSSSTASASAKKIIVKHVTVIGGGLMGAGIAQVAAATGHTVVLVDQTEDILAKSKKGIEESLRKVAKKKFAENLKAGDEFVEKTLSTIATSTDAASVVHSTDLVVEAIVENLKVKNELFKRLDKFAAEHTIFASNTSSLQITSIANATTRQDRFAGLHFFNPVPVMKLVEVIKTPMTSQKTFESLVDFSKALGKHPVSCKDTPGFIVNRLLVPYLMEAIRLYERGDASKEDIDTAMKLGAGYPMGPFELLDYVGLDTTKFIVDGWHEMDAENPLHQPSPSLNKLVAENKFGKKTGEGFYKYK [HADH]",
    "categoryLabel": "Condition met"
  },
  {
    "chainSequence": "MAEPFLSEYQHQPQTSNCTGAAAVQEELNPERPPGAEERVPEEDSRWQSRAFPQLGGRPGPEGEGSLESQPPPLQTQACPESSCLREGEKGQNGDDSSAGGDFPPPAEVEPTPEAELLAQPCHDSEASKLGAPAAGGEEEWGQQQRQLGKKKHRRRPSKKKRHWKPYYKLTWEEKKKFDEKQSLRASRIRAEMFAKGQPVAPYNTTQFLMDDHDQEEPDLKTGLYSKRAAAKSDDTSDDDFMEEGGEEDGGSDGMGGDGSEFLQRDFSETYERYHTESLQNMSKQELIKEYLELEKCLSRMEDENNRLRLESKRLGGDDARVRELELELDRLRAENLQLLTENELHRQQERAPLSKFGD [HEXIM1]",
    "categoryLabel": "Condition met"
  },
  {
    "chainSequence": "MFPFYSCWRTGLLLLLLAVAVRESWQTEEKTCDLVGEKGKESEKELALVKRLKPLFNKSFESTVGQGSDTYIYIFRVCREAGNHTSGAGLVQINKSNGKETVVGRLNETHIFNGSNWIMLIYKGGDEYDNHCGKEQRRAVVMISCNRHTLADNFNPVSEERGKVQDCFYLFEMDSSLACSPEISHLSVGSILLVTFASLVAVYVVGGFLYQRLVVGAKGMEQFPHLAFWQDLGNLVADGCDFVCRSKPRNVPAAYRGVGDDQLGEESEERDDHLLPM [M6PR]",
    "categoryLabel": "Condition not met"
  },
  {
    "chainSequence": "MRALRAGLTLASGAGLGAVVEGWRRRREDARAAPGLLGRLPVLPVAAAAELPPVPGGPRGPGELAKYGLPGLAQLKSRESYVLCYDPRTRGALWVVEQLRPERLRGDGDRRECDFREDDSVHAYHRATNADYRGSGFDRGHLAAAANHRWSQKAMDDTFYLSNVAPQVPHLNQNAWNNLEKYSRSLTRSYQNVYVCTGPLFLPRTEADGKSYVKYQVIGKNHVAVPTHFFKVLILEAAGGQIELRTYVMPNAPVDEAIPLERFLVPIESIERASGLLFVPNILARAGSLKAITAGSK [ENDOG]",
    "categoryLabel": "Condition met"
  },
  {
    "chainSequence": "MAAARATTPADGEEPAPEAEALAAARERSSRFLSGLELVKQGAEARVFRGRFQGRAAVIKHRFPKGYRHPALEARLGRRRTVQEARALLRCRRAGISAPVVFFVDYASNCLYMEEIEGSVTVRDYIQSTMETEKTPQGLSNLAKTIGQVLARMHDEDLIHGDLTTSNMLLKPPLEQLNIVLIDFGLSFISALPEDKGVDLYVLEKAFLSTHPNTETVFEAFLKSYSTSSKKARPVLKKLDEVRLRGRKRSMVG [TP53RK]",
    "categoryLabel": "Condition not met"
  }
]
